- system_name: HLA-B*83:01
- protocol_details: IEDB peptide-MHC binding, purified MHC/competitive/fluorescence; filed as Kd, often an IC50 or EC50 that approximates it; bounds were set here for any values at or beyond the usual limits of such assays
- condition_description: source organism: Mycobacterium tuberculosis variant bovis BCG str. Pasteur 1173P2
assay_metric: pKd
Remember the convention: pKd equals -log10 of concentration in molar.

Looking for the measured pKd of RPRCAYLPF , can you help?
7.50

* * *

- system_name: HLA-A*68:01
- protocol_details: IEDB peptide-MHC binding, purified MHC/competitive/radioactivity; filed as Kd, often an IC50 or EC50 that approximates it; bounds were set here for any values at or beyond the usual limits of such assays
- condition_description: source organism: Vaccinia virus WR
assay_metric: log10 Kd (log10 of the value in nM)
Parameter value (number): base-10 log of Kd in nM.

monomer_sequence: AVNKSNKPLK
log10 Kd: 3.78
//
monomer_sequence: DFRDYQSYR
log10 Kd: 3.01
//
monomer_sequence: NIQKITVFNK
log10 Kd: 1.48
//
monomer_sequence: ITSTKTIEY
log10 Kd: 3.24
//
monomer_sequence: ILAALFMYY
log10 Kd: 1.56

Looking for the measured log10 Kd of IISIRPRVTK , can you help?
2.26
